test system: Aβ 40 in rat CSF; experiment: In vivo inhibition of beta-secretase: Aβ40 reduction in rat CSF; settings: 3 mpk, after 4 h
attributeMeasured: % Aβ 40 reduction in rat CSF (3 mpk)

Some solved entries appear below for comparison.
1. C#CCOc1cnc(C(=O)Nc2cc(F)c(F)c([C@@]3(C)N=C(N)S[C@@]4(C(F)F)C[C@@H]34)c2)cn1    80 (3 mpk) %
2. N#Cc1ccc(C(=O)Nc2cc(F)c(F)c([C@@]3(CF)N=C(N)S[C@H]4C[C@H]43)c2)nc1    41 (3 mpk) %
3. C#CCOc1cnc(C(=O)Nc2cc(F)c(F)c([C@@]3(C)N=C(N)S[C@H]4C[C@H]43)c2)cn1    70 (3 mpk) %
4. [2H]C([2H])([2H])OC[C@]12C[C@H]1[C@@](C)(c1cc(NC(=O)c3cnc(OCC#C)cn3)cc(F)c1F)N=C(N)S2    79 (3 mpk) %
5. N#Cc1cnc2c(Nc3ccc(F)c([C@@]4(CF)N=C(N)S[C@H]5C[C@H]54)c3)ncnc2c1    23 (3 mpk) %

Item under review: C#CCOc1cnc(C(=O)Nc2cc(F)c(F)c([C@@]3(C)N=C(N)S[C@@]4(CF)C[C@H]43)c2)cn1 . Reported % Aβ 40 reduction in rat CSF (3 mpk)?
79 (3 mpk) %

Sourced from patent US20160046618A1
